assay.explanation: Release kinetics in solution: t1/2, time for one half of the molecule to cleave and release the azole moiety
Type: physicochemical
conditions.used: 1×10^-4 molar in 30% acetonitrile/0.25 N aqueous KOH, 22°±0.1° C.; release of azole moiety
measurement.kind: t1/2 (min)

See these solved cases before continuing.
Cn1c(=O)[nH]cc(Cn2nnn(-c3ccccc3)c2=S)c1=O: 25.2
O=c1[nH]cc(CSc2ncccn2)c(=O)[nH]1: 0.598

1. CC(=O)n1c(=O)[nH]cc(Cn2nnn(-c3ccccc3)c2=S)c1=O
2. Cn1c(=O)[nH]cc(CSc2nnnn2-c2ccccc2)c1=O
3. Cn1c(=O)[nH]cc(CSc2nnnn2-c2ccc(O)cc2)c1=O
4. O=c1[nH]cc(Cn2nc(-c3cccs3)oc2=S)c(=O)[nH]1
Query :: Arrange these compounds by their t1/2, starting with the largest number. Rank the items, then write their labels in that order.
Result :: 4, 1, 3, 2
(4: 72 min, 1: 15.2 min, 3: 0.0667 min, 2: 0.0135 min)

P. O=c1[nH]cc(Cn2nc(-c3ccccc3)oc2=S)c(=O)[nH]1
Q. O=C(c1ccccc1)n1c(=O)[nH]cc(CSc2nnnn2-c2ccccc2)c1=O
Query :: Compare the recorded t1/2 of P and Q ; state which is larger. State the label of the item chosen.
Result :: P

P. CC(=NO)c1ccc(-n2nnnc2SCc2c[nH]c(=O)n(C)c2=O)cc1
Q. O=c1[nH]cc(CSc2ncnc3[nH]cnc23)c(=O)[nH]1
Query :: Input pair: P , Q . Output: entry with lower t1/2. State your choice using its label.
Result :: P
(P: 0.0145 min, Q: 1.3 min)
